// data source = ChEMBL document CHEMBL3351600

For each of the molecules below, state its CC50.
System: U-251
ASSAY_COMMENT: Growth inhibition of human U251 cells after 48 hrs
Type: functional
RUN_PARAMETERS: U-251, 48 h, read-out: pLC50 (the source's name) (converted)
One number for each entry, in µM.

Record excerpt, results attached:
smiles_code=COc1ccc(N(CC(=O)NCCC[Te]c2ccccc2)C(=O)CNC(=O)OC(C)(C)C)cc1 tested_system=U-251 readout_name=CC50 recorded_measurement=49
smiles_code=CC1=C(SCCC(=O)OCC(=O)NCCC[Te]c2ccccc2)C(=O)c2ccccc2C1=O tested_system=U-251 readout_name=CC50 recorded_measurement=45.7

Now examine the next entry.
Supply CC50 value. Item: COc1ccc(N(CC(=O)NCCC[Te]c2ccccc2)C(=O)c2ccccc2)cc1
74.1

----------
Hi there, I'd appreciate the recorded diameter of the inhibition zone (DIZ) for every entry that follows.
Test system: Mycolicibacterium phlei
ASSAY_COMMENT: Antimicrobial activity against Mycobacterium phlei assessed as inhibition at 20 ug/6 mm disk after 1 to 2 days by agar diffusion assay
Type: functional
One number for each entry, in mm.

smiles_code=COc1ccc(N(CC(=O)NCCCSc2ccccc2)C(=O)CNC(=O)OC(C)(C)C)cc1 tested_system="Mycolicibacterium phlei" recorded_measurement=0
smiles_code=COc1ccc(N(CC(=O)NCCC[Te]c2ccccc2)C(=O)CNC(=O)OC(C)(C)C)cc1 tested_system="Mycolicibacterium phlei" recorded_measurement=12
smiles_code=COc1ccc(N(CC(=O)NCCC[Se]c2ccccc2)C(=O)CCSC2=C(C)C(=O)c3ccccc3C2=O)cc1 tested_system="Mycolicibacterium phlei" recorded_measurement=0
smiles_code=COc1ccc(N(CC(=O)NCCCSc2ccccc2)C(=O)c2ccccc2)cc1 tested_system="Mycolicibacterium phlei" recorded_measurement=0
smiles_code=COc1ccc(N(CC(=O)NCCC[Te]c2ccccc2)C(=O)/C=C/c2ccccc2)cc1 tested_system="Mycolicibacterium phlei" recorded_measurement=12
smiles_code=COc1ccc(N(CC(=O)NCCCSc2ccccc2)C(=O)C#Cc2ccccc2)cc1 tested_system="Mycolicibacterium phlei" recorded_measurement=0
smiles_code=CC1=C(SCCC(=O)OCC(=O)NCCC[Te]c2ccccc2)C(=O)c2ccccc2C1=O tested_system="Mycolicibacterium phlei" recorded_measurement=16

Respond only with diameter of the inhibition zone (DIZ) recorded for O=C(COC(=O)/C=C/c1ccccc1)NCCC[Te]c1ccccc1
0

----------
ASSAY_COMMENT: Lipophilicity, log K of the compound by HPLC analysis
Can you tell me log K for the items I'm about to list?
One number for each entry.

molecule=COc1ccc(N(CC(=O)NCCC[Te]c2ccccc2)C(=O)CCSC2=C(C)C(=O)c3ccccc3C2=O)cc1 readout_name="log K" recorded_measurement=-0.54
molecule=O=C(COC(=O)C#Cc1ccccc1)NCCC[Te]c1ccccc1 readout_name="log K" recorded_measurement=-1.04
molecule=O=C(COC(=O)/C=C/c1ccccc1)NCCC[Te]c1ccccc1 readout_name="log K" recorded_measurement=-0.06

Provide the reported log K of each entry below, same order.
1. COc1ccc(N(CC(=O)NCCCSc2ccccc2)C(=O)/C=C/c2ccccc2)cc1
2. c1ccccc1 [BENZENE]
3. COc1ccc(N(CC(=O)NCCC[Se]c2ccccc2)C(=O)CCSC2=C(C)C(=O)c3ccccc3C2=O)cc1

[0.39, -0.53, 0.55]

----------
System: TK-10
ASSAY_COMMENT: Growth inhibition of human TK10 cells after 48 hrs
Format: functional
RUN_PARAMETERS: TK-10, 48 h, read-out: pTGI (converted)
Could you please report measured TGI for the items listed next?
One number for each entry, in µM.

Here are 3 molecules together with their reported answers.
smiles_code=CC1=C(SCCC(=O)OCC(=O)NCCC[Te]c2ccccc2)C(=O)c2ccccc2C1=O readout_name=TGI recorded_measurement=12.9
smiles_code=COc1ccc(N(CC(=O)NCCC[Te]c2ccccc2)C(=O)CCSC2=C(C)C(=O)c3ccccc3C2=O)cc1 readout_name=TGI recorded_measurement=6.92
smiles_code=COc1ccc(N(CC(=O)NCCC[Te]c2ccccc2)C(=O)CNC(=O)OC(C)(C)C)cc1 readout_name=TGI recorded_measurement=10.7

Please turn your attention to the following entry.
Tell me its TGI given COc1ccc(N(CC(=O)NCCC[Te]c2ccccc2)C(=O)c2ccccc2)cc1 as the entry.
11.5

----------
Exercise: for every item that follows, state its recorded TGI.
Tested on: A549
ASSAY_COMMENT: Growth inhibition of human A549/ATCC cells after 48 hrs
Assay type: functional
RUN_PARAMETERS: A549, 48 h, read-out: pTGI (converted)
Numbers only, in nM.

Examples with their reported TGI follow.
smiles_code=CC1=C(SCCC(=O)OCC(=O)NCCC[Te]c2ccccc2)C(=O)c2ccccc2C1=O recorded_measurement=3630
smiles_code=COc1ccc(N(CC(=O)NCCC[Te]c2ccccc2)C(=O)c2ccccc2)cc1 recorded_measurement=2140

Proceeding to the next compound to report its TGI.
Write down TGI measured for item COc1ccc(N(CC(=O)NCCC[Te]c2ccccc2)C(=O)CNC(=O)OC(C)(C)C)cc1
2190

----------
ASSAY_COMMENT: Octanol-water partition coefficient, log P of the compound by HPLC analysis
Assay type: physicochemical
Consider the following compounds; for each one, report its logP.
Answers are plain numbers.

Examples from the recorded data:
smiles_code=COc1ccc(N(CC(=O)NCCCSc2ccccc2)C(=O)CCSC2=C(C)C(=O)c3ccccc3C2=O)cc1 recorded_measurement=4.2
smiles_code=COc1ccc(N(CC(=O)NCCC[Se]c2ccccc2)C(=O)CCSC2=C(C)C(=O)c3ccccc3C2=O)cc1 recorded_measurement=4.23
smiles_code=O=C(COC(=O)C#Cc1ccccc1)NCCC[Te]c1ccccc1 recorded_measurement=0.9
smiles_code=COc1ccc(N(CC(=O)NCCCSc2ccccc2)C(=O)/C=C/c2ccccc2)cc1 recorded_measurement=4
smiles_code=COc1ccc(N(CC(=O)NCCC[Se]c2ccccc2)C(=O)CNC(=O)OC(C)(C)C)cc1 recorded_measurement=3.3
smiles_code=COc1ccc(N(CC(=O)NCCC[Te]c2ccccc2)C(=O)c2ccccc2)cc1 recorded_measurement=1.72
smiles_code=COc1ccc(N(CC(=O)NCCC[Se]c2ccccc2)C(=O)/C=C/c2ccccc2)cc1 recorded_measurement=3.7
smiles_code=O=C(COC(=O)/C=C/c1ccccc1)NCCC[Te]c1ccccc1 recorded_measurement=3.01
smiles_code=COc1ccc(N(CC(=O)NCCCSc2ccccc2)C(=O)c2ccccc2)cc1 recorded_measurement=3.1

Next:
Complete the entry with logP for COc1ccc(N(CC(=O)NCCC[Te]c2ccccc2)C(=O)CNC(=O)OC(C)(C)C)cc1
4.2

----------
ASSAY_COMMENT: Lipophilicity, log K of the compound by HPLC analysis
What log K was measured for each of the following?
Give bare numbers.

Examples from the recorded data:
molecule="CC(=O)Nc1ccccc1 [ACETANILIDE]" recorded_measurement=-0.94
molecule=COc1ccc(N(CC(=O)NCCC[Se]c2ccccc2)C(=O)C#Cc2ccccc2)cc1 recorded_measurement=-0.25
molecule=COc1ccc(N(CC(=O)NCCC[Se]c2ccccc2)C(=O)/C=C/c2ccccc2)cc1 recorded_measurement=0.27
molecule=COc1ccc(N(CC(=O)NCCCSc2ccccc2)C(=O)CNC(=O)OC(C)(C)C)cc1 recorded_measurement=0.3

// each molecule listed below needs its log K
1. CC1=C(SCCC(=O)OCC(=O)NCCC[Te]c2ccccc2)C(=O)c2ccccc2C1=O
2. COc1ccc(N(CC(=O)NCCC[Se]c2ccccc2)C(=O)c2ccccc2)cc1
3. Cc1ccc(C(C)C)c(O)c1 [THYMOL]

1. -0.56
2. -0.03
3. -0.12
